Cited source for all entries: PubChem BioAssay AID1159580

testMethodNotes: chemical genetic growth profiling, strain panel (AID 1159580);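 further: tested at 20 µM; growth read once vehicle control cultures reached saturation at 30 °C; 1 = growth at the plate median or of vehicle wells; lower values mean less growth of the strain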
condition: S. cerevisiae deletion strains, growth OD, locus YNL153C, strain GIM3, stronger effect = lower value
About 2,000 (36%) of roughly 5,500 compounds were called active. Roughly 18% stayed inconclusive and do not appear here. The list shows a part of the results.
parameter: normalized growth

Data request: Returns the measured normalized growth for the input molecule. Input: "O=C1CC[C@]23C=CC(=O)NCCCCNCCCNC(=O)/C=C/c4ccc(c2c4)O[C@@H]3C1"
Data returned: 0.996 (inactive)

Data request: Which normalized growth value is on record for "CSc1nc(N)nc(C(C)(C)C)n1" ?
Data returned: 0.982 (inactive)

Data request: Query: normalized growth; subject: "COc1cc2cc[n+]3cc4c(OC)c(OC)ccc4cc3c2cc1OC"
Data returned: 0.999 (inactive)

Data request: Look at this molecule and give its reported normalized growth. "COc1cc(O)c2c(=O)c(-c3ccc(O)cc3)coc2c1"
Data returned: 0.941 (inactive)

Data request: Dear colleague, I am looking for the recorded normalized growth of the following molecule: "CCN1CN=C(SCc2ccc(C)cc2)NC1"
Data returned: 0.98 (inactive)
